tested on: B. cereus; assay: Broth microdilution MIC/MBC, B. cereus; assay type: cell-based; details: Bacillus cereus, B. cereus BAG1X2-1 NR-28578; read-out: MIC
Recorded MIC by entry
Supply the numeric figure in µM, leaving out any unit text.

1) O=C(O)[C@H](Cc1ccccc1)N1C(=O)/C(=C/c2cccc(-c3ccc(Cl)c(Cl)c3)c2)SC1=S    2
2) O=C(O)[C@H](Cc1ccccc1)N1C(=O)/C(=C/c2cccc(OC/C=C/c3ccc(Cl)c(Cl)c3)c2)SC1=S    4
3) O=C(O)[C@H](Cc1ccccc1)N1C(=O)/C(=C/c2cccc(Oc3ccc(Cl)c(Cl)c3)c2)SC1=S    4
4) O=C(O)[C@H](Cc1ccccc1)N1C(=O)/C(=C/c2cccc(-c3ccccc3)c2)SC1=S    4
5) CC(=O)NC[C@H]1CN(c2ccc(N3CCOCC3)c(F)c2)C(=O)O1 [Linezolid, linezolid, reference compound]    1
6) O=C(O)[C@@H](Cc1ccccc1)N1C(=O)/C(=C/c2cccc(Oc3ccc(F)cc3)c2)SC1=S    8
7) O=C(O)[C@@H](Cc1ccccc1)N1C(=O)/C(=C/c2cccc(Cc3ccccc3)c2)SC1=S    4

Proceed to the following item.
Challenge: Please report the measured MIC for "O=C(O)[C@H](Cc1ccccc1)N1C(=O)/C(=C/c2cccc(Cc3ccc(Cl)c(Cl)c3)c2)SC1=S"
Response given: 4

* * *

Recorded MIC by entry
system: vancomycin resistant enterococci (VRE) E. faecalis; assay: Broth microdilution MIC/MBC, VRE E. faecalis; assay type: cell-based; conditions: E. faecalis R712 HM-335; read-out: MIC
Supply the numeric figure in µM, leaving out any unit text.

// below: answered compounds
1. O=C(O)[C@@H](Cc1ccccc1)N1C(=O)/C(=C/c2cccc(Cc3ccccc3)c2)SC1=S    8
2. O=C(O)[C@H](Cc1ccccc1)N1C(=O)/C(=C/c2cccc(OC/C=C/c3ccc(Cl)c(Cl)c3)c2)SC1=S    4
3. O=C(O)[C@H](Cc1ccccc1)N1C(=O)/C(=C/c2cccc(-c3ccccc3)c2)SC1=S    8

Challenge: Please report the measured MIC for CC(=O)NC[C@H]1CN(c2ccc(N3CCOCC3)c(F)c2)C(=O)O1 [Linezolid, linezolid, reference compound]
Response given: 2

* * *

system: Escherichia coli O157:H7; assay: MIC with/without PMBN, Escherichia coli O157:H7; assay type: cell-based; conditions: Escherichia coli O157:H7 ATCC 35150; PMBN (+) 4 μg/mL; read-out: MIC
quantityMeasured: MIC

1) CC[C@H]1OC(=O)[C@H](C)[C@@H](O[C@H]2C[C@@](C)(OC)[C@@H](O)[C@H](C)O2)[C@H](C)[C@@H](O[C@@H]2O[C@H](C)C[C@H](N(C)C)[C@H]2O)[C@](C)(O)C[C@@H](C)C(=O)[C@H](C)[C@@H](O)[C@]1(C)O [Erythromycin, erythromycin, reference compound]    4 µM
2) O=C(O)[C@H](Cc1ccccc1)N1C(=O)/C(=C/c2cccc(OC/C=C/c3ccc(Cl)c(Cl)c3)c2)SC1=S [Rh 6]    8 µM
3) CCCCCCCCCC(=O)N[C@@H](Cc1c[nH]c2ccccc12)C(=O)N[C@H](CC(N)=O)C(=O)N[C@@H](CC(=O)O)C(=O)N[C@@H]1C(=O)NCC(=O)N[C@@H](CCCN)C(=O)N[C@@H](CC(=O)O)C(=O)N[C@H](C)C(=O)N[C@@H](CC(=O)O)C(=O)NCC(=O)N[C@H](CO)C(=O)N[C@@H]([C@H](C)CC(=O)O)C(=O)N[C@@H](CC(=O)c2ccccc2N)C(=O)O[C@@H]1C [Daptomycin, reference compound]    >256 µM
4) O=C(O)[C@@H](Cc1ccccc1)N1C(=O)/C(=C/c2cccc(Oc3ccc(F)cc3)c2)SC1=S [Rh 4]    8 µM
5) O=C(O)[C@H](Cc1ccccc1)N1C(=O)/C(=C/c2cccc(Oc3ccc(Cl)c(Cl)c3)c2)SC1=S [Rh 1]    8 µM

Challenge: Please report the measured MIC for CC(=O)O[C@H]1C[C@@]2(C)[C@@H](C[C@@H](O)[C@H]3[C@@]4(C)CC[C@@H](O)[C@@H](C)[C@@H]4CC[C@@]32C)/C1=C(\CCC=C(C)C)C(=O)O [Fusidic acid, fusidic acid, reference compound]
Response given: 4 µM

Challenge: Please report the measured MIC for O=C(O)[C@H](Cc1ccccc1)N1C(=O)/C(=C/c2cccc(-c3ccc(Cl)c(Cl)c3)c2)SC1=S [Rh 2]
Response given: 8 µM

Challenge: Please report the measured MIC for O=C(O)[C@H](Cc1ccccc1)N1C(=O)/C(=C/c2cccc(Cc3ccc(Cl)c(Cl)c3)c2)SC1=S [Rh 3]
Response given: 8 µM
